# TARGET OR TEST SYSTEM: T1, human ST2 on human primary cells (human, UniProt Q01638 19-556)
# T1 sequence: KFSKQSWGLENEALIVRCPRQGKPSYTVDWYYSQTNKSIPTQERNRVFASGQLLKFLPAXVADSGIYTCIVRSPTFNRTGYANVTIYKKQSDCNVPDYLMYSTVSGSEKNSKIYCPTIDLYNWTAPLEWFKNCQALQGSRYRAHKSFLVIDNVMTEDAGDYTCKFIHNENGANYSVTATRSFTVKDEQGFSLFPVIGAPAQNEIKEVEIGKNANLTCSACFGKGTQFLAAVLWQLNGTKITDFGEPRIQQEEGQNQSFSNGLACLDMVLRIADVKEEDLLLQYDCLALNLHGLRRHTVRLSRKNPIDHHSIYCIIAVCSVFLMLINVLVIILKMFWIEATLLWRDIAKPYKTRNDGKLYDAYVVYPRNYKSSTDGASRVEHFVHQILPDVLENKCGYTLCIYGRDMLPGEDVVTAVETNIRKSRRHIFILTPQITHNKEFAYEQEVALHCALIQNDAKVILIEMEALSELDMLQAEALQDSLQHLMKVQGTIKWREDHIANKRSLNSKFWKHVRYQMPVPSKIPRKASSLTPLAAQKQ
# EXPERIMENTAL PROTOCOL: cell-based or functional assay
REPORTED METRIC: IC-50, human eosinophil IL-8 release assay (IL-33 and IL-3 stimulation)
Respond with the figure and its unit, in that order.

Memo: Ab6 (antibody, human IgG2, kappa, V domains shown, fully human anti-ST2 antibody) VH: EVQLVESGGGLVQPGGSLRLSCAASGFTFSTYDMHWVRQTTGKGLEWVSAIDLAGDTYYPGSVKGRFTISREDAKNSLYLQMNSLRAGDTAVYYCARGGDGYNYDYYGIDVWGQGTTVTVSS VL: DIVMTQSPLSLPVTPGEPASISCRSSQSLLHSDGYHYLDWYLQKPGQSPQLLIYLGSNRASGVPDRFSGSGSGTDFTLNISRVEAEDVGVYYCMQALQTLTFGGGTKVEIKR , reported IC-50, human eosinophil IL-8 release assay (IL-33 and IL-3 stimulation): 63 pM
